TESTED_SYSTEM: hFZD7 CRD-Fc (human, UniProt O75084 33-185)
RUN_DESCRIPTION: spot phage ELISA
Class Condition met: S/W at least 3. Class Condition not met: S/W below 3.

BINDER | CLASS_LABEL
VPSDDLEFWCAVMY [SEQ ID NO 95] | Condition not met
APSDDLAAWCHVVY [SEQ ID NO 56] | Condition not met
VPADDLASWCHVMY [SEQ ID NO 63] | Condition met
APADDLASWCHVMY [SEQ ID NO 61] | Condition met
AAADDLEAWCAVMY [SEQ ID NO 59] | Condition met
APSDDVAFWCHVMY [SEQ ID NO 42] | Condition met
APADDLEFWCHVVY [SEQ ID NO 64] | Condition met
AAADDLAAWCHVVY [SEQ ID NO 98] | Condition not met
APSDDLEFWCHAMY [SEQ ID NO 46] | Condition met
VASDDLASWCHVVY [SEQ ID NO 86] | Condition not met
APSDDLASWCHVMY [SEQ ID NO 71] | Condition met
APSDDLAFWCDVMY [SEQ ID NO 91] | Condition met
VASDDLEFWCHVMY [SEQ ID NO 58] | Condition met
APADDVEFWCHVMY [SEQ ID NO 43] | Condition met
VPADDLAFWCHVMY [SEQ ID NO 67] | Condition met
VAADDLAAWCHVMY [SEQ ID NO 39] | Condition met
VPSDDLASWCHVMY [SEQ ID NO 68] | Condition met
AAADDLAAWCDVMY [SEQ ID NO 57] | Condition met
VASDDLEAWCHVMY [SEQ ID NO 47] | Condition met
APSDDLEAWCDVMY [SEQ ID NO 75] | Condition not met
VPSADLESWCHVMY [SEQ ID NO 69] | Condition not met
AASDDLESWCHVMY [SEQ ID NO 50] | Condition not met
LPSADLESWCHVMY [SEQ ID NO 79] | Condition not met
APADDLAFWCHVVY [SEQ ID NO 74] | Condition met
AAADDLEVWCHVMY [SEQ ID NO 54] | Condition met

The values you see were collected from patent US20190359653A1.
